Collected Ki values appear next to each entry.
- Measurement protocol: Inhibition of Mycobacterium tuberculosis PtpB
Report as: number unit

O=P(O)(O)C(F)(F)c1ccc(-c2ccc(F)c(C(F)(F)F)c2)cc1C1CCCCC1; 690 nM

Q) Hello, please tell me recorded Ki for this one: O=C(O)c1cc(-c2ccc(-c3ccc(F)c(C(F)(F)F)c3)cc2C2CCCCC2)on1
A) 220 nM
